All values here come from ChEMBL document CHEMBL3880421.

measurement_protocol: Terminal half life in B6 mouse at 8 mg/kg, po by UV-HPLC analysis
Type: ADME, organism-based
run_conditions: in vivo, read-out: beta t1/2 (converted)
observed_property: half-life (h)

In [3]: df
Out[3]:
                      smiles_representation  readout_unit  test_result
0  CCn1nc(C)cc1C(=O)Nc1cccc(C(=O)c2ccc3c(/C=C/c4ccccn4)n[nH]c3c2)c1.Cl             h          1.5

###

Collected inhibition at 0.01 µM values appear next to each entry.
measurement_protocol: Antiproliferative activity against VEGF-stimulated HUVEC cells assessed as reduction in cell viability at 10 nM preincubated for 1 hr followed by addition of VEGF measured after 72 hrs by MTT assay
Type: functional
run_conditions: Homo sapiens
observed_property: inhibition at 0.01 µM (%)

>>> print(df.to_string())
                                   molecule  test_result
0  C[C@@]12C[C@H]3C[C@H]1C[C@@]3(C(=O)Nc1cccc(Nc3ccc4c(/C=C/c5ccccc5)n[nH]c4c3)c1)C2           15
1  CC(=O)N1CCCC1C(=O)Nc1cccc(C(=O)c2ccc3c(/C=C/c4ccccc4)n[nH]c3c2)c1 (stereo not drawn)           10
2  CN1CCC=C(C(=O)Nc2cccc(Nc3ccc4c(/C=C/c5ccccc5)n[nH]c4c3)c2)C1            0
3  Cc1ccc(CCC(=O)Nc2cccc(C(=O)c3ccc4c(/C=C/c5ccccc5)n[nH]c4c3)c2)cc1           57
4  O=C(Nc1cccc(Nc2ccc3c(/C=C/c4ccccc4)n[nH]c3c2)c1)C(=O)C1=CCCCC1           23
5  CC(C)=CC1C(C(=O)Nc2cccc(C(=O)c3ccc4c(/C=C/c5ccccc5)n[nH]c4c3)c2)C1(C)C (stereo not drawn)            3
6  O=C(Nc1cccc(Oc2ccc3c(/C=C/c4ccccc4)n[nH]c3c2)c1)C(=O)C1=CCCCC1           57
7  CO[C@H](C(=O)Nc1cccc(Nc2ccc3c(/C=C/c4ccccc4)n[nH]c3c2)c1)c1ccccc1           80

###

inhibition at 0.01 µM reference
measurement_protocol: Antiproliferative activity against VEGF-stimulated HUVEC cells assessed as reduction in cell viability at 10 nM preincubated for 1 hr followed by addition of VEGF measured after 72 hrs by MTT assay
Type: functional
run_conditions: Homo sapiens
observed_property: inhibition at 0.01 µM

                                    compound      observed_property  test_result
 0  O=C(Nc1cccc(Oc2ccc3c(/C=C/c4ccccc4)n[nH]c3c2)c1)c1cccc2cc[nH]c12  inhibition at 0.01 µM          68%
 1  COc1ccc(C#N)c(C(=O)Nc2cccc(Nc3ccc4c(/C=C/c5ccccc5)n[nH]c4c3)c2)c1  inhibition at 0.01 µM         -18%
 2  CN(C)CCCC(=O)Nc1cccc(Nc2ccc3c(/C=C/c4ccccc4)n[nH]c3c2)c1  inhibition at 0.01 µM          30%
 3  COc1cccc(/C=C/C(=O)Nc2cccc(Nc3ccc4c(/C=C/c5ccccc5)n[nH]c4c3)c2)c1  inhibition at 0.01 µM          30%
 4  CCNc1ccccc1C(=O)Nc1cccc(C(=O)c2ccc3c(/C=C/c4ccccc4)n[nH]c3c2)c1  inhibition at 0.01 µM          54%
 5  O=C(Cn1ccc2ccccc21)Nc1cccc(Nc2ccc3c(/C=C/c4ccccc4)n[nH]c3c2)c1  inhibition at 0.01 µM          -7%
 6  CCO/C(C)=C/C(=O)Nc1cccc(C(=O)c2ccc3c(/C=C/c4ccccc4)n[nH]c3c2)c1  inhibition at 0.01 µM          72%
 7  CCNc1ccccc1C(=O)Nc1cccc(Oc2ccc3c(/C=C/c4ccccc4)n[nH]c3c2)c1  inhibition at 0.01 µM          85%
 8  O=C(Nc1cccc(Oc2ccc3c(/C=C/c4ccccc4)n[nH]c3c2)c1)C1=C[C@@H](O)[C@@H](O)[C@H](O)C1  inhibition at 0.01 µM          25%
 9  O=C(Nc1cccc(Nc2ccc3c(/C=C/c4ccccc4)n[nH]c3c2)c1)C1CCOC1 (stereo not drawn)  inhibition at 0.01 µM          -3%
10  O=C(CC1CC2CCC1C2)Nc1cccc(Oc2ccc3c(/C=C/c4ccccc4)n[nH]c3c2)c1 (stereo not drawn)  inhibition at 0.01 µM          78%
11  CC(C)(C)[C@@H](O)C(=O)Nc1cccc(Nc2ccc3c(/C=C/c4ccccc4)n[nH]c3c2)c1  inhibition at 0.01 µM          10%
12  O=C(c1cccc(NC(=O)C2CC3C=CC2CC3)c1)c1ccc2c(/C=C/c3ccccc3)n[nH]c2c1 (stereo not drawn)  inhibition at 0.01 µM          42%
13  O=C(Cn1ccc2ccccc21)Nc1cccc(Oc2ccc3c(/C=C/c4ccccc4)n[nH]c3c2)c1  inhibition at 0.01 µM          52%
14  Cn1cnc(CC(=O)Nc2cccc(C(=O)c3ccc4c(/C=C/c5ccccc5)n[nH]c4c3)c2)c1  inhibition at 0.01 µM          31%
15  O=C(Nc1cccc(Nc2ccc3c(/C=C/c4ccccc4)n[nH]c3c2)c1)C1C[C@H]2C[C@@H]1CCC2O (stereo partly drawn)  inhibition at 0.01 µM          -9%
16  CC(=O)N1CCC(C(=O)Nc2cccc(Nc3ccc4c(/C=C/c5ccccc5)n[nH]c4c3)c2)CC1  inhibition at 0.01 µM          13%
17  O=C1NCC(C(=O)Nc2cccc(C(=O)c3ccc4c(/C=C/c5ccccc5)n[nH]c4c3)c2)N1 (stereo not drawn)  inhibition at 0.01 µM          21%

###

Measured half-life by item
measurement_protocol: Terminal half life in B6 mouse at 50 mg/kg, po by UV-HPLC analysis
Assay type: ADME, organism-based
run_conditions: B6, mouse, in vivo, read-out: beta t1/2 (converted)
observed_property: half-life (min)

In [3]: df
Out[3]:
                                   compound  test_result
0  CC(=O)c1ccc(C(=O)Nc2cccc(C(=O)c3ccc4c(/C=C/c5ccccn5)n[nH]c4c3)c2)s1           96
1  O=C(NCC1CC1)c1ccccc1Sc1ccc2c(/C=C/c3ccccn3)n[nH]c2c1           60
2  O=C(c1cccc(NC(=O)C2C[C@H]2c2ccccc2)c1)c1ccc2c(/C=C/c3ccccn3)n[nH]c2c1 (mixture of isomers)           30
3  CC(C)NC(=O)c1ccccc1Sc1ccc2c(/C=C/c3ccccn3)n[nH]c2c1           48
4  O=C(Nc1cccc(Cl)c1)c1ccccc1Sc1ccc2c(/C=C/c3ccccn3)n[nH]c2c1           54
5  Cc1cc(C(=O)Nc2cccc(Oc3ccc4c(/C=C/c5ccccn5)n[nH]c4c3)c2)nn1C           60
6  O=C(c1cccc(NC(=O)c2ccccn2)c1)c1ccc2c(/C=C/c3ccccn3)n[nH]c2c1           54
7  Cc1cc(C(=O)Nc2cccc(C(=O)c3ccc4c(/C=C/c5ccccn5)n[nH]c4c3)c2)n[nH]1           42

###

measurement_protocol: Metabolic stability in human liver microsomes assessed as compound remaining at 5 uM measured after 2 hrs in presence of NADPH-regenerating system by LC-UV/MS analysis
Format: ADME
run_conditions: read-out: Stability
observed_property: remaining at 2 h, 5 µM (%)

                      smiles_representation       observed_property  readout_unit  test_result
0  O=C(Nc1cccc(C(=O)c2ccc3c(/C=C/c4ccccn4)n[nH]c3c2)c1)c1ccncc1  remaining at 2 h, 5 µM             %           50

###

measurement_protocol: Terminal half life in B6 mouse at 25 mg/kg, po by UV-HPLC analysis
Format: ADME, organism-based
run_conditions: B6, mouse, in vivo, read-out: beta t1/2 (converted)
half-life values for the compounds below.
observed_property: half-life

>>> df
                      smiles_representation  test_result
0  CCn1nc(C)cc1C(=O)Nc1cccc(C(=O)c2ccc3c(/C=C/c4ccccn4)n[nH]c3c2)c1.Cl       96 min
1  CCn1nc(C)cc1C(=O)Nc1cccc(Oc2ccc3c(/C=C/c4ccccn4)n[nH]c3c2)c1.Cl     1260 min
2  CCn1nc(C)cc1C(=O)Nc1cccc(Oc2ccc3c(/C=C/c4ccccn4)n[nH]c3c2)c1      114 min
3  CCONC(=O)c1ccccc1Sc1ccc2c(/C=C/c3ccccn3)n[nH]c2c1      120 min
4  CCn1nc(C)cc1C(=O)Nc1cccc(Oc2ccc3c(/C=C/c4c[nH]cn4)n[nH]c3c2)c1      126 min
5  C=C(C)CNC(=O)c1ccccc1Sc1ccc2c(/C=C/c3ccccn3)n[nH]c2c1      876 min
